Target: SARS-CoV-2 spike protein S on live virus, Wuhan (strain SARS-CoV-2/Canada/VIDO-01/2020) (SARS-CoV-2 (Wuhan), UniProt P0DTC2 14-1273)
Test: cell-based or functional assay
The binders listed here are annotated with their LVNA IC50.
Dear colleague, please return just the value in nM, with no unit written.

These solved cases illustrate the format of a correct answer.
BINDER: NRCoV2-MRed05 VHH-Fc (Fc fusion, bivalent VHH-Fc) EVQLVESGGGLVQPGGSLRLSCAASGFTLDYYAIGWFRQAPGKEREGVSCISSSDGSTLYADSVKGRFTISRDNAKNTVYLQMNSLKPEDTAVYYCATGPQAYYSGSYYFQCPQAGMDYWGKGTQVTVSS
LVNA IC50, nM: 0.17

BINDER: NRCoV2-14 VHH-Fc (Fc fusion, bivalent VHH-Fc) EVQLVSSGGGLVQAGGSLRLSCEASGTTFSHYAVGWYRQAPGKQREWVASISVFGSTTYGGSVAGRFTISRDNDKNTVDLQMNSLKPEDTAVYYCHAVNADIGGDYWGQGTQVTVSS
LVNA IC50, nM: 3.1

What LVNA IC50 value was documented for this binder, NRCoV2-1d VHH-Fc (Fc fusion, bivalent VHH-Fc) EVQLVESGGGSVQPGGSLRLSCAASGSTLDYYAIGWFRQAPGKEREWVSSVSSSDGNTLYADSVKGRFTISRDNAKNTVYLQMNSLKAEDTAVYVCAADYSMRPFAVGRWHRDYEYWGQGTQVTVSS ?
1.94

What LVNA IC50 value was documented for this binder, NRCoV2-07 VHH-Fc (Fc fusion, bivalent VHH-Fc) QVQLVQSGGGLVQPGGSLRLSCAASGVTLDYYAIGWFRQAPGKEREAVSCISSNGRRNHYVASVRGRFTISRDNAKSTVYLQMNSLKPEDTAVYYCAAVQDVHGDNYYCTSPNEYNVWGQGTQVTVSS ?
6.15

# credit: patent US20240270826A1
